Target: E2F4 (Homo sapiens)
Assay: E2F4 DNA-binding EMSA on whole cell extracts of treated A375 cells
Format: cell-based
Conditions: A375 cells treated 9-hrs, EMSA, Proc Probit; read-out: IC50 (drug concentration required to reduce total E2F4 DNA-binding activity by 50% of untreated cells)
quantity: IC50 (µM)
Numbers only, in µM.

The molecule CCOc1ccc(C(Nc2ccccn2)c2ccc3ccc(C)nc3c2O)cc1C (stereo not shown) showed IC50 equal to 29.8

====

System: 8226-s
Assay: MTS viability assay, 8226-s
Format: cell-based
Settings: Homo sapiens; 8226-s parental
quantity: IC50 (µM)
Answers are plain numbers, in µM.

Notebook: CCOc1ccc(C(Nc2ccccn2)c2ccc3ccc(C)nc3c2O)cc1C (stereo not shown) , IC50 read as 36

====

Target: E2F4 (Homo sapiens, UniProt Q16254)
Sequence (Q16254 2-413 limits assumed): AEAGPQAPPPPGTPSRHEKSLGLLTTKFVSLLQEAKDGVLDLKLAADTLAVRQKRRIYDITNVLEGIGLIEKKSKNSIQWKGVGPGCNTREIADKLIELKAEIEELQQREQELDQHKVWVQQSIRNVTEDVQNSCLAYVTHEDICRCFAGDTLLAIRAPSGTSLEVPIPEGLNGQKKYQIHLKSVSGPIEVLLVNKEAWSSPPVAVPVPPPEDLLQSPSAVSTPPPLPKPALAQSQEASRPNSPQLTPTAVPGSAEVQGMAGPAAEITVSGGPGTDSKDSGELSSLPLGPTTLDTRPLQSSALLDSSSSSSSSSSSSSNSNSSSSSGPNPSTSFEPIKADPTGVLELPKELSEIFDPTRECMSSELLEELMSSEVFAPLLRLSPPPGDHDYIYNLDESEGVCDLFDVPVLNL
Sequence (Q14186 whole entry partner): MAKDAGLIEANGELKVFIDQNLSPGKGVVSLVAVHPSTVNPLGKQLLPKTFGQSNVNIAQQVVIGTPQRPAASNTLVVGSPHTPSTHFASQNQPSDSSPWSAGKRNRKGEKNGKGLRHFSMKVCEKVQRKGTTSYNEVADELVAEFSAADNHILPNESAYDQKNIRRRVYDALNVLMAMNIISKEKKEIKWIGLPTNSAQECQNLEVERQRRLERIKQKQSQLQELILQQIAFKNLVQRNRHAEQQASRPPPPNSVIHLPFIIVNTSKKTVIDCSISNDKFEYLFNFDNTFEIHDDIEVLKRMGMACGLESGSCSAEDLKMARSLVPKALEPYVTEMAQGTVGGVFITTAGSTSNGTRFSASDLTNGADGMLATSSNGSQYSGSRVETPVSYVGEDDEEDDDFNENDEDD
Assay: E2F4 DNA-binding EMSA on whole cell extracts of treated A375 cells
Type: cell-based
Details: as restated for the NCI60 screen; read-out: known IC50
quantity: IC50 (µM)
Answers are plain numbers, in µM.

IC50 in this record for CCOc1ccc(C(Nc2ccccn2)c2ccc3ccc(C)nc3c2O)cc1C (stereo not shown) [HLM006474] : 30
